Target: S. aureus DnaE (DNA polymerase III α-subunit homolog from Staphylococcus aureus) (Staphylococcus aureus)
Construct: SaDnaE (S. aureus DnaE residues 1-1065); 6xHis (N); made in house; host or cells: E. coli BL21-AI
Sequence (Q5HF71 whole entry, the tested form may be a part): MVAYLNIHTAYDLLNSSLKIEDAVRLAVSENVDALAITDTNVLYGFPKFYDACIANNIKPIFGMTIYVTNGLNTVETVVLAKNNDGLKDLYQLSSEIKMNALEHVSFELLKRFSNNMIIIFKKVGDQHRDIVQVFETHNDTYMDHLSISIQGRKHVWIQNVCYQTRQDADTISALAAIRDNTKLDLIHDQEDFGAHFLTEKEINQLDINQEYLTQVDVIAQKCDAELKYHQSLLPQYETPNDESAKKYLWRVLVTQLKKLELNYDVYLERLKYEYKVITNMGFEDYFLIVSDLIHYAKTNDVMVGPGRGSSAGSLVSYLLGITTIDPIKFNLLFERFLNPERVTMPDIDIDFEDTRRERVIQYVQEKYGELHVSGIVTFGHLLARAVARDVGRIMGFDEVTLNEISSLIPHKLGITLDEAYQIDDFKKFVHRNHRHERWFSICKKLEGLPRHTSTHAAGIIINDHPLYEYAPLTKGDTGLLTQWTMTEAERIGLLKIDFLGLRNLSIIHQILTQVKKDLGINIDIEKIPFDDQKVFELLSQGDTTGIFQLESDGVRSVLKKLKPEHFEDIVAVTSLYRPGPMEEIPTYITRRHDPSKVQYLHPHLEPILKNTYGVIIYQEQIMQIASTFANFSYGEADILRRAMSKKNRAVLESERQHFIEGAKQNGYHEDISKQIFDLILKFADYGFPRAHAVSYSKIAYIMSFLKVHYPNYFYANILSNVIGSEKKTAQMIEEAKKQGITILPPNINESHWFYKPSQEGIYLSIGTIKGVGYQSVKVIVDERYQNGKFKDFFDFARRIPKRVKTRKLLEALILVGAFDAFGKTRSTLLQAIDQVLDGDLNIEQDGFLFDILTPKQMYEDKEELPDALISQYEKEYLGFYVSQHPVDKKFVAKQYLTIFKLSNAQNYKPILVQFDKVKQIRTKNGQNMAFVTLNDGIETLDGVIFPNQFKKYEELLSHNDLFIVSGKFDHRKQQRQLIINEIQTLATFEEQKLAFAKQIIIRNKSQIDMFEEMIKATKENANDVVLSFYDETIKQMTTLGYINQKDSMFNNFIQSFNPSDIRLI
Assay: biochemical
Type: biochemical
Conditions: read-out: S. aureus DnaE IC50 (converted)
Rule: measured IC50 below 700 nM gets T; anything equal to or greater than 700 nM gets F.

* CO[C@H]1C[C@H]2C=C[C@H]3[C@H]4O[C@]2(/C(C)=C/[C@@H](C)[C@@H]([C@@H](C)O)OC1=O)[C@@H]3[C@H](O)[C@@H](C)[C@@H]4N1CCCC1 [Example 161] | F
* CO[C@H]1C[C@H]2C=C[C@H]3[C@H]4O[C@]2(/C(C)=C/[C@@H](C)[C@@H]([C@@H](C)OC(=O)c2ccccc2)OC1=O)[C@@H]3[C@H](O)[C@@H](C)[C@H]4OC(=O)c1ccc[nH]1 [Example 67] | T
* CO[C@H]1CC2C=C[C@H]3[C@H]4O[C@]2(/C(C)=C/[C@@H](C)[C@@H]([C@@H](C)OC(=O)NCC(N)=O)OC1=O)[C@@H]3[C@H](O)[C@@H](C)[C@H]4OC(=O)c1ccc[nH]1 (stereo partly shown) [Example 16] | T
* CC[C@H]1OC(=O)[C@@H](OC)C[C@H]2C=C[C@H]3[C@H]4O[C@]2(/C(C)=C/[C@H]1C)[C@@H]3[C@H](O)C(C)[C@H]4C[N+](=O)[O-] (stereo partly shown) [Example 190] | F
* CO[C@H]1C[C@H]2C=C[C@H]3[C@H]4O[C@]2(/C(C)=C/[C@@H](C)[C@@H]([C@@H](C)O)OC1=O)[C@@H]3[C@H](O)C(C)[C@@H]4NCCN1CCCC1.O=C(O)C(F)(F)F (stereo partly shown) [Example 157] | F
* CO[C@H]1C[C@H]2C=C[C@H]3[C@H]4O[C@]2(/C(C)=C/[C@@H](C)[C@@H]([C@@H](C)OCSC)OC1=O)[C@@H]3C(=O)[C@@H](C)[C@H]4OC(=O)c1ccc[nH]1 [Example 58] | F
* COC1CC2C=CC3C4OC2(C(C)=CC(C)C(C(C)OC(=O)NCCN2CCN(C)CC2)OC1=O)C3C(O)C(C)C4OC(=O)c1ccc[nH]1 (stereo not shown) [Example 24] | T
* CCN[C@H]1[C@H](C)[C@@H](O)[C@@H]2[C@H]3C=C[C@@H]4C[C@H](OC)C(=O)O[C@H]([C@@H](C)O)[C@H](C)/C=C(\C)[C@@]24O[C@H]31 [Example 147] | T
